The values you see were collected from ChEMBL document CHEMBL4043290.

- target_entity: MAP kinase-interacting serine/threonine-protein kinase 1 (Homo sapiens)
- Sequence (Q9BUB5 whole entry): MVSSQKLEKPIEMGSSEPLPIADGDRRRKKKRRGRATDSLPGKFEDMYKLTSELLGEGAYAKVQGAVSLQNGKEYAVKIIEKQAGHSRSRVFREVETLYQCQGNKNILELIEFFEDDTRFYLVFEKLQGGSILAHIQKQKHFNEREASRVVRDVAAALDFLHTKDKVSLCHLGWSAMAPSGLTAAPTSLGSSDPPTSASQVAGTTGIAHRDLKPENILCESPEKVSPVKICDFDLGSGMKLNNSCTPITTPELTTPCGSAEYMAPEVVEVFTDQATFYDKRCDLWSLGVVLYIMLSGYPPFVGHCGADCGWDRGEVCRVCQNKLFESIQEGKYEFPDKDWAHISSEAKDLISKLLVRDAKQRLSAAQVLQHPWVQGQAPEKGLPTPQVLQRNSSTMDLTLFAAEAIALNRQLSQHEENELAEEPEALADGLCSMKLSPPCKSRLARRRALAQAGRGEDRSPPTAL
Field 'label' (enum: true (1) / false (0)). Set to true (1) when IC50 is strictly under 60 nM; else false (0).

Given Cc1n[nH]c(C)c1-c1ccc(C2CCCN2)cc1 (stereo not given) , is recorded IC50 strictly lower than 60 nM?
false (0)

Given c1ccc(-c2n[nH]c3ccc(-c4ccncc4)cc23)cc1 , is recorded IC50 strictly lower than 60 nM?
false (0)

Given CC1(C)NC(=O)c2ccc(Nc3ccncn3)cc21 , is recorded IC50 strictly lower than 60 nM?
false (0)

Given CC1NC(=O)c2ccc(Nc3ccncn3)cc21 (stereo not given) , is recorded IC50 strictly lower than 60 nM?
true (1)

Given NC(=O)c1ccc(Nc2ccncn2)cc1 , is recorded IC50 strictly lower than 60 nM?
false (0)

Given c1cc(-c2cc(C3CCNCC3)[nH]n2)ccn1 , is recorded IC50 strictly lower than 60 nM?
false (0)

Given N[C@H]1C[C@H](Oc2ccc3ncc(-c4ccc5cnccc5c4)n3n2)C1 , is recorded IC50 strictly lower than 60 nM?
true (1)

Given O=C1NCc2cc(Nc3ncnc4[nH]cnc34)ccc21 , is recorded IC50 strictly lower than 60 nM?
true (1)

Given c1cnn2c(-c3ccncc3)cnc2c1 , is recorded IC50 strictly lower than 60 nM?
false (0)

---

- test_protocol: Metabolic stability in rat liver microsomes assessed as parent compound remaining at 1 uM after 30 mins by LC-ESI-TOF/MS method
- Type: ADME, microsome
- condition_parameters: read-out: Stability
Provide the reported remaining at 0.5 h, 1 µM of each item.
A bare number is not enough; add the unit after it.

The reported remaining at 0.5 h, 1 µM of the compound Cc1cc(Nc2cc(N)ncn2)c(=O)n2c1C(=O)NC21CCC(F)(F)CC1 was 100%

The reported remaining at 0.5 h, 1 µM of the compound Nc1cc(Nc2cc(Cl)c3n(c2=O)C2(CCCC2)NC3=O)ncn1 was 73%

The reported remaining at 0.5 h, 1 µM of the compound CC1(C)NC(=O)c2c(Cl)cc(Nc3cc(N)ncn3)c(=O)n21 was 100%

The reported remaining at 0.5 h, 1 µM of the compound Nc1cc(Nc2cc(Cl)c3n(c2=O)C2(CCCCC2)NC3=O)ncn1 was 69%

The reported remaining at 0.5 h, 1 µM of the compound Cc1cc(Nc2cc(N)ncn2)c(=O)n2c1C(=O)NC21CCCCC1 was 93%

---

- test_protocol: Oral bioavailability in Beagle dog at 5 mg/kg by LC-ESI-TOF/MS or LC-ESI-MS/MS method
- Format: ADME, organism-based, Canis lupus familiaris
- condition_parameters: in vivo
measure: bioavailability

The reported bioavailability of the compound Nc1cc(Nc2cc(Cl)c3n(c2=O)C2(CCCCC2)NC3=O)ncn1 was > 100%

---

- test_protocol: Antiproliferative activity against human B-ALL cells after 72 hrs by CellTiter-Glo assay
- Type: functional, cell-based
pIC50: −log10 of the molar value.
measure: pIC50

The reported pIC50 of the molecule Cc1cc(Nc2cc(N)ncn2)c(=O)n2c1C(=O)NC21CCCCC1 was < 4.52

---

- target_entity: MAP kinase-interacting serine/threonine-protein kinase 1/2 (Homo sapiens, UniProt Q9HBH9+Q9BUB5)
measure: IC50
A bare number is not enough; add the unit after it.

The reported IC50 of the compound Nc1ncnc(Nc2cc(Cl)c3n(c2=O)C2(CCCCC2)NC3=O)c1Cl was 0.084 nM

The reported IC50 of the compound N[C@H]1C[C@H](Oc2ccc3ncc(-c4ccc5cnccc5c4)n3n2)C1 was 120 nM

The reported IC50 of the compound CC1(C)NC(=O)c2ccc(Nc3ccncn3)cc21 was 4400 nM

The reported IC50 of the compound O=C1NCc2cc(Nc3cc(NC(=O)C4CC4)ncn3)ccc21 was 430 nM

The reported IC50 of the compound CC1NC(=O)c2ccc(Nc3ccncn3)cc21 (stereo not given) was 28000 nM

---

Provide the reported bioavailability of each item.
- test_protocol: Oral bioavailability in Balb/c mouse at 10 mg/kg by LC-ESI-TOF/MS or LC-ESI-MS/MS method
- Assay type: ADME, organism-based
- condition_parameters: in vivo
Unit % implied. Number only.

The reported bioavailability of the compound CC1(C)NC(=O)c2c(Cl)cc(Nc3cc(N)ncn3)c(=O)n21 was 79

The reported bioavailability of the compound Nc1cc(Nc2cc(Cl)c3n(c2=O)C2(CCCCC2)NC3=O)ncn1 was 58

The reported bioavailability of the compound Nc1cc(Nc2cc(Cl)c3n(c2=O)C2(CCCC2)NC3=O)ncn1 was 80

The reported bioavailability of the compound Cc1cc(Nc2cc(N)ncn2)c(=O)n2c1C(=O)NC21CCCCC1 was 79

The reported bioavailability of the compound Cc1cc(Nc2cc(N)ncn2)c(=O)n2c1C(=O)NC21CCC(F)(F)CC1 was 85

---

- test_protocol: Protein binding in dog plasma
- Format: ADME, cell-free, Canis lupus familiaris
- condition_parameters: read-out: PPB
measure: fraction unbound
Please give the numeric answer without any surrounding text.

The reported fraction unbound of the compound Cc1cc(Nc2cc(N)ncn2)c(=O)n2c1C(=O)NC21CCCCC1 was 0.5

---

- test_protocol: Antiproliferative activity against human T-ALL cells after 72 hrs by CellTiter-Glo assay
- Assay type: functional, cell-based
pIC50: −log10 of the molar value.
measure: pIC50

The reported pIC50 of the compound Cc1cc(Nc2cc(N)ncn2)c(=O)n2c1C(=O)NC21CCCCC1 was < 4.52

---

Provide the reported inhibition of each item.
- target_entity: Serine/threonine-protein kinase 17A (Homo sapiens) (UniProt Q9UEE5)
- Sequence (whole entry): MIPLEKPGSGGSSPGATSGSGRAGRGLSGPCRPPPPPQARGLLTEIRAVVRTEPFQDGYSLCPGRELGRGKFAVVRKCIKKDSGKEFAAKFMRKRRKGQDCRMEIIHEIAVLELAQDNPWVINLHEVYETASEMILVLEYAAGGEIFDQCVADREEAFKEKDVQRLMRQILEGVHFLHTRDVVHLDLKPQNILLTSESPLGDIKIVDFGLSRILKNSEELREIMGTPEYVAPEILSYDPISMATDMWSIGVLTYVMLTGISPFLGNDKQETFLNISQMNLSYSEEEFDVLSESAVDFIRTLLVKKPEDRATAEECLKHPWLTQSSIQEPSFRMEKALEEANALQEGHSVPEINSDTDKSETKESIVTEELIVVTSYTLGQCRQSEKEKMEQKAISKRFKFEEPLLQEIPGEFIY
- test_protocol: Inhibition of DRAK1 (unknown origin) at 1 uM relative to control
A bare number is not enough; add the unit after it.

The reported inhibition of the molecule CC1(C)NC(=O)c2c(Cl)cc(Nc3cc(N)ncn3)c(=O)n21 was 88%

The reported inhibition of the molecule Nc1cc(Nc2cc(Cl)c3n(c2=O)C2(CCCC2)NC3=O)ncn1 was 95%

The reported inhibition of the molecule Cc1cc(Nc2cc(N)ncn2)c(=O)n2c1C(=O)NC21CCC(F)(F)CC1 was 68%

The reported inhibition of the molecule Nc1cc(Nc2cc(Cl)c3n(c2=O)C2(CCCCC2)NC3=O)ncn1 was 96%

---

- target_entity: Proto-oncogene tyrosine-protein kinase receptor Ret (Homo sapiens) (UniProt P07949)
- Sequence (P07949 whole entry): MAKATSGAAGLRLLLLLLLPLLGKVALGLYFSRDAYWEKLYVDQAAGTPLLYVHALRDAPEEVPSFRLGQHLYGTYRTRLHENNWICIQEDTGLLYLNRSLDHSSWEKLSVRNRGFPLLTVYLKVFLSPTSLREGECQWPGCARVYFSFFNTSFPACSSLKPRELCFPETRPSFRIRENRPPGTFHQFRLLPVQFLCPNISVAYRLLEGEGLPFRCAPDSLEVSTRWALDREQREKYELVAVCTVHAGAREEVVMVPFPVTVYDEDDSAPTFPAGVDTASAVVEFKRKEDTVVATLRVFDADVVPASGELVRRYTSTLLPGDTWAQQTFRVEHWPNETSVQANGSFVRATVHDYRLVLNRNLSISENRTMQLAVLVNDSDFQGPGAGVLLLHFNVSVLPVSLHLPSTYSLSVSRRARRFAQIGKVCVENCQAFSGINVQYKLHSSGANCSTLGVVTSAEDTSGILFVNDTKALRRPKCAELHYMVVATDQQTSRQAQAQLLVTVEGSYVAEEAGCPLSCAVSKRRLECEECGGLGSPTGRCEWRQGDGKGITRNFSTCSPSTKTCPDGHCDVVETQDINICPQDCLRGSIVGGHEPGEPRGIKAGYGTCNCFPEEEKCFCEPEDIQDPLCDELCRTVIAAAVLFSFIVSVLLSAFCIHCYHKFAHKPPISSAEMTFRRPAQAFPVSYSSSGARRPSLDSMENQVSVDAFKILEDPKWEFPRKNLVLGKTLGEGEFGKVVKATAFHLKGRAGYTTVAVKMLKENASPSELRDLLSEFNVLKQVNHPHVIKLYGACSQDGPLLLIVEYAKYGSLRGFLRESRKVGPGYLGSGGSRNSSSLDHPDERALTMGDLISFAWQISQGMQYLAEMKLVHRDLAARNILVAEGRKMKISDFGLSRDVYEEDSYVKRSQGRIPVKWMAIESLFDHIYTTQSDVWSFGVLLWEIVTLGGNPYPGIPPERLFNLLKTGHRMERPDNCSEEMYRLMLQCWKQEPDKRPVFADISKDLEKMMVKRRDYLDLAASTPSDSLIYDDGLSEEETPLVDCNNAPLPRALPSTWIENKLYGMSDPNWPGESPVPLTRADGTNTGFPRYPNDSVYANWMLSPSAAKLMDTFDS
- test_protocol: Inhibition of RET (unknown origin) at 1 uM relative to control
measure: inhibition (%)
Unit % implied. Number only.

The reported inhibition of the compound CC1(C)NC(=O)c2ccc(Nc3cc(NC(=O)C4CC4)ncn3)c(=O)n21 was 4

The reported inhibition of the compound CC1(c2cccc(Cl)c2)NC(=O)c2c(Cl)cc(Nc3cc(NC(=O)C4CC4)ncn3)c(=O)n21 (centres undefined) was 10

The reported inhibition of the compound Nc1cc(Nc2cc(Cl)c3n(c2=O)C2(CCCCC2)NC3=O)ncn1 was 55

The reported inhibition of the compound Nc1cc(Nc2cc(Cl)c3n(c2=O)C2(CCCC2)NC3=O)ncn1 was 87

---

- test_protocol: Oral bioavailability in cynomolgus monkey at 3 mg/kg by LC-ESI-TOF/MS or LC-ESI-MS/MS method
- Assay type: ADME, organism-based, Macaca fascicularis
- condition_parameters: in vivo
Provide the reported bioavailability of each item.
Unit % implied. Number only.

The reported bioavailability of the compound Cc1cc(Nc2cc(N)ncn2)c(=O)n2c1C(=O)NC21CCC(F)(F)CC1 was 58

The reported bioavailability of the compound CC1(C)NC(=O)c2c(Cl)cc(Nc3cc(N)ncn3)c(=O)n21 was 54

The reported bioavailability of the compound Nc1cc(Nc2cc(Cl)c3n(c2=O)C2(CCCC2)NC3=O)ncn1 was 51

The reported bioavailability of the compound Cc1cc(Nc2cc(N)ncn2)c(=O)n2c1C(=O)NC21CCCCC1 [TOMIVOSERTIB] was 24

---

MAP kinase-interacting serine/threonine-protein kinase 2 (Homo sapiens, UniProt Q9HBH9) measurements of pIC50, listed per entry.
Sequence (Q9HBH9 whole entry): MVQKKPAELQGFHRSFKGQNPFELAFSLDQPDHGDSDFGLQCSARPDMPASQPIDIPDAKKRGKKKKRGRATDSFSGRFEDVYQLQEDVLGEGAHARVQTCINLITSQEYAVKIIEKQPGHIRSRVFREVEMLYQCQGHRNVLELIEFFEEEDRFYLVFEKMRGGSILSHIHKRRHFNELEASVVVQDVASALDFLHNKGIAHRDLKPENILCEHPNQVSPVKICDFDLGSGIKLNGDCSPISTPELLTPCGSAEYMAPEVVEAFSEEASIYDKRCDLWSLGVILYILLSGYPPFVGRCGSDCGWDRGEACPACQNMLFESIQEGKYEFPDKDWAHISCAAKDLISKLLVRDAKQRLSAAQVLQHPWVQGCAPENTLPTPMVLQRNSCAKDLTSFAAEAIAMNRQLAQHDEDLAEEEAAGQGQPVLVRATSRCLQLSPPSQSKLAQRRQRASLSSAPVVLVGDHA
Note: pIC50 values are expressed as the negative base-10 logarithm of concentration in M.

The reported pIC50 of the compound Nc1ncnc(Nc2cc(Cl)c3n(c2=O)C2(CCCCC2)NC3=O)c1Cl was 9.44

The reported pIC50 of the compound CC1(C)NC(=O)c2ccc(Nc3ccncn3)cc21 was 7.21

The reported pIC50 of the compound O=C1NCc2cc(Nc3cc(NC(=O)C4CC4)ncn3)ccc21 was 8.24
